Origin of the recorded values: ChEMBL document CHEMBL1201862

- Test system: LOX IMVI
- Assay: NCI tumour cell line growth inhibition, 48 h
Active and inactive are the calls of the source. Cut-off read from the data, not from the text of the source: active = GI50 up to about 1.1 µM and inactive = higher.
Outcomes: active, inactive

Compound	Tested On	Category
Nc1nccc(-c2c[nH]c3cc(Br)ccc23)n1 [MERIDIANIN D]	LOX IMVI	inactive
Cc1cccc(C)c1NC(=O)CCCC(=O)CC(=O)/C=C/c1ccccc1	LOX IMVI	inactive
CC(C)CC(N)C(=O)Nc1ccc2ccccc2c1 (centres undefined)	LOX IMVI	inactive
CC(C)NC1(C(N)=O)CCN(Cc2ccccc2)CC1	LOX IMVI	inactive
CN(C)CC(C)(C)C(=O)/C=C/c1ccccc1	LOX IMVI	inactive
[N-]=[N+]=NC1=C(c2ccccc2)C(=O)c2cccc3cccc1c23	LOX IMVI	inactive
CC(C)N(CCCNc1c2ccccc2nc2cccc([N+](=O)[O-])c12)C(C)C	LOX IMVI	active
C=C(C)C(=O)OC1C/C(CO)=C\C(O)C/C(C)=C/C2OC(=O)C(=C)C21 (centres undefined)	LOX IMVI	inactive
COc1ccccc1N1CCN(Cn2c(=O)oc3cccnc32)CC1	LOX IMVI	inactive
COc1nc(N)c(C(=O)CCl)c(=O)n1C	LOX IMVI	inactive
CC(=O)CCn1c(=S)sc2ccccc21	LOX IMVI	inactive
CC1CC[C@]2(C(=O)O)CCC3(C)C(=CC(=O)C4[C@@]5(C)CCC(=O)C(C)(C)C5CC[C@]43C)[C@@H]2[C@H]1C (some centres undefined)	LOX IMVI	inactive
CC1=CC2C(C(C)C)CC1C1C(=O)OC(=O)C21 (centres undefined)	LOX IMVI	inactive
O=[N+]([O-])c1ccc2c(Nc3ccccc3-c3ccccc3Nc3c4ccccc4nc4cc([N+](=O)[O-])ccc34)c3ccccc3nc2c1	LOX IMVI	inactive
CCc1n[nH]c(=O)n1NC(=O)CCCC(=O)O	LOX IMVI	inactive
NC1=Nc2ccccc2Sc2nccn21	LOX IMVI	inactive
C=CCN1C(=O)/C(=C/c2ccc(Cl)cc2)N=C1SC/C=C/C	LOX IMVI	inactive
Cc1cc(N(CCC#N)CCC#N)ccc1/N=N/c1ccc([N+](=O)[O-])cc1	LOX IMVI	inactive
Cc1cccc2c(N)c3cccc(C(=O)NCC[N+](C)(C)Cc4ccc([N+](=O)[O-])s4)c3nc12	LOX IMVI	inactive
CCOC(=O)C(C)(C)Oc1ccc2c(=O)cc(-c3ccc(Cl)cc3)oc2c1	LOX IMVI	inactive
Nc1cc(C(=O)O)nc(O)n1	LOX IMVI	inactive
CCC(CCCC[C@H]1CC[C@@H]2CC(=O)C[C@H]12)OC (some centres undefined)	LOX IMVI	inactive
O=C(NCCO)c1cc2c(cn1)[nH]c1ccccc12	LOX IMVI	inactive
CC1(C)S[C@@H]2[C@H](N3C(=O)c4ccccc4C3=O)CN2[C@H]1NC(=O)N[C@@H]1N2C[C@@H](N3C(=O)c4ccccc4C3=O)[C@H]2SC1(C)C	LOX IMVI	inactive
COc1ccc2nccc(SCC(=O)O)c2c1	LOX IMVI	inactive
O=C(CO)CC(=O)C(=O)Nc1nc([N+](=O)[O-])cs1	LOX IMVI	inactive
O=P(O)(O)C=C=C1CCCCC1	LOX IMVI	inactive
CC(=O)CCC[C@@H](C)[C@@H]1O[C@H]([C@@]2(C)CCC(=O)O2)C[C@H]2C(CSc3ccccc3)C(=O)O[C@@H]12 (some centres undefined)	LOX IMVI	inactive
CC1=C2C(O)C(C(C)C(=O)NCC(C)C)CCC2(C)C=CC1=O (centres undefined)	LOX IMVI	inactive
NC(=S)NN=C1Cc2ccccc2C1	LOX IMVI	inactive
COC(=O)C1(O)c2ccccc2N=C2C(=O)c3ccccc3N21 (centres undefined) [METHYLISATOID]	LOX IMVI	inactive
OCN(CO)c1ccc2c(c1)Cc1cc(F)ccc1-2	LOX IMVI	inactive
Cn1c(=O)c2c(ncn2CCNC(CO)C(O)c2ccc([N+](=O)[O-])cc2)n(C)c1=O (centres undefined)	LOX IMVI	inactive
O=c1oc2ncccc2n1Cc1ccc([N+](=O)[O-])cc1	LOX IMVI	inactive
CCc1cc2c(cc1C(=O)CCC(=O)O)CC1(C2)Cc2cc(CC)c(C(=O)CCC(=O)O)cc2C1	LOX IMVI	inactive
O=c1c2nn[nH]c2nc2n1CC(c1ccccc1)S2 (centres undefined)	LOX IMVI	inactive
C=CC12CN(C)C3C4COC(CC41)C1(C(=O)Nc4ccccc41)C32 (centres undefined)	LOX IMVI	inactive
CCOC(=O)c1c(N2CCCC2)nsc1Nc1ccc(F)cc1	LOX IMVI	inactive
CC[N+]1(C)CCC(O)(/C=C/c2ccc(Cl)cc2)C(C(=O)/C=C/c2ccc(Cl)cc2)C1 (centres undefined)	LOX IMVI	inactive
O=C1c2ccccc2OCC1/C=N/O (centres undefined)	LOX IMVI	inactive
CC#N.O[C@@H]1CCCC[C@H]1O.O[C@@H]1CCCC[C@H]1O.[TeH2]	LOX IMVI	inactive
COc1cc(Br)cc2c1O[C@H]1C(=O)CC3CC21CCN3C (some centres undefined)	LOX IMVI	inactive
C=CCOC(=O)/C(=C\c1ccc(OC)c(OC)c1)c1ccc(OC)c(OC)c1	LOX IMVI	inactive
COC(=O)c1cc2c(o1)Sc1ccccc1NC2=O	LOX IMVI	inactive
